# Tested on: Human immunodeficiency virus 1
# Experiment Description: Antiviral activity against wild type Human immunodeficiency virus 1 infected human MT4 cells assessed as inhibition of virus-induced cytopathic effect after 4 days by MTT assay
# Type: functional, organism-based
# Test Settings: Human immunodeficiency virus 1, MT4, 96 h
Assign labels as follows, please: Yes for EC50 below 30 µM; No for EC50 equal to or exceeding 30 µM.

compound_smiles=O=C(OCCN1C(=O)c2ccccc2C1=O)c1cc(F)ccc1F assigned_category=Yes
compound_smiles=O=C(OCCN1C(=O)c2ccccc2C1=O)c1ccc(F)c(F)c1 assigned_category=No
compound_smiles=Cc1cc(C(=O)OCCN2C(=O)c3ccccc3C2=O)c(C)o1 assigned_category=Yes
compound_smiles=O=C(OCCOc1ccc(Br)cc1)c1ccc(Cl)c([N+](=O)[O-])c1 assigned_category=No
compound_smiles=O=C(OCCCN1C(=O)c2ccccc2C1=O)c1cc(F)ccc1F assigned_category=No
compound_smiles=O=C(OCCN1C(=O)c2ccccc2C1=O)c1c(F)cccc1F assigned_category=No
compound_smiles=O=C(OCCN1C(=O)c2ccccc2C1=O)c1ccccc1[N+](=O)[O-] assigned_category=No
compound_smiles=O=C(OCCN1C(=O)c2ccccc2C1=O)c1cc(Cl)ccc1F assigned_category=No
compound_smiles=O=C(OCCN1C(=O)c2ccccc2C1=O)c1ccc(Cl)c(Cl)c1 assigned_category=Yes
compound_smiles=O=C(OCCN1C(=O)c2ccccc2C1=O)c1cc(Cl)cc(Cl)c1 assigned_category=Yes
